Target Desc: T1, MET928 (cMET protein derived from construct 25-928) (human, UniProt P08581 25-928)
T1 construct: MET ectodomain, residues 1-24 are the leader; produced in Lec 8 cells; background text says the ectodomain is furin-cleaved into alpha (25-307) and beta chains; biotinylated form used in selections; also called MET928 extracellular domain; Met extracellular domain
T1 sequence (P08581 25-928): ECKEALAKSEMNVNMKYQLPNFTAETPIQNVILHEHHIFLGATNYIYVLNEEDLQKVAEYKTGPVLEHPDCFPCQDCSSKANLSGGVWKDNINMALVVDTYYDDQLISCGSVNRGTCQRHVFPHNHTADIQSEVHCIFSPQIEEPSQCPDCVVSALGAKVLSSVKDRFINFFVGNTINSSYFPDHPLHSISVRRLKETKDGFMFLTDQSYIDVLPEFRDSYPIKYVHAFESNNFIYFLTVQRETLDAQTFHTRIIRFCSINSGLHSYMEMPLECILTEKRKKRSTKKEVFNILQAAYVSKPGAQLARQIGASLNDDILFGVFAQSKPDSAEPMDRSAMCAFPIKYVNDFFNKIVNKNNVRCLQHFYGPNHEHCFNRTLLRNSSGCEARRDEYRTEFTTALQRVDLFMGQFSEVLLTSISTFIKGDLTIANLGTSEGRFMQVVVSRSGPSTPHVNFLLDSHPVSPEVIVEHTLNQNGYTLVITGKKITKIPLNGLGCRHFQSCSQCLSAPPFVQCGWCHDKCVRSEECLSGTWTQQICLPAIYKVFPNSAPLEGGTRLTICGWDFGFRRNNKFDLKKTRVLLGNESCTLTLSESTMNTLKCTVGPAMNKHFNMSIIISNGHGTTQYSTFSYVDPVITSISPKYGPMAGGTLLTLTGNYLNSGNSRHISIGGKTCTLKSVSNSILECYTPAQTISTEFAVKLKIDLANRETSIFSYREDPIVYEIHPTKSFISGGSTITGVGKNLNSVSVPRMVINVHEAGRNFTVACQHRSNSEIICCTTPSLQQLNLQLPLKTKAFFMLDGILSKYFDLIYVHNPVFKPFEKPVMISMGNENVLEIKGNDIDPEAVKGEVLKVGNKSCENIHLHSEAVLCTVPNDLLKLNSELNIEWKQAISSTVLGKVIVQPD
Measurement Notes: Biacore SPR, MET-928 on chip, scFv format

Binder	koff, s⁻¹
7A2 scFv (expressed in E. coli, 6xHis/tri-Flag tags) (scFv, also called 084-G02; antibody 7A2; not shown: 6xHis/tri-FLAG tags of pSANG10-3F) scFv: QMQLVQSGAEVKKPGAPVKVSCKVSGYTFTDYYMHWVQQAPGKGLEWMGLVDPEDGETIYAEKFQGRVTITADTSTDTAYMELSSLRSEDTAVYYCATDATTPYYGMDVWGQGTLVTVSSLEGGGGSGGGGSGGGASDIQMTQSPSSLSASVGDRVTITCQASQDISNYLNWYQQKPGRAPKVLIYDASNLETGVPSRFSGSGSGTEFTLTISNLRPDDFATYYCQQGDSFPLTFGGGTKVEIK	0.646
107_A01 scFv (6xHis/tri-Flag tags) (scFv, 7A2 derivative, only VH CDR3 changed; not shown: 6xHis/tri-FLAG tags of pSANG10-3F) scFv: QMQLVQSGAEVKKPGAPVKVSCKVSGYTFTDYYMHWVQQAPGKGLEWMGLVDPEDGETIYAEKFQGRVTITADTSTDTAYMELSSLRSEDTAVYYCATDATTPYWGMVSWGQGTLVTVSSLEGGGGSGGGGSGGGASDIQMTQSPSSLSASVGDRVTITCQASQDISNYLNWYQQKPGRAPKVLIYDASNLETGVPSRFSGSGSGTEFTLTISNLRPDDFATYYCQQGDSFPLTFGGGTKVEIK	0.00321
110_A06 scFv (6xHis/tri-Flag tags) (scFv, 7A2 derivative, only VH CDR3 changed; also called 110_A6; not shown: 6xHis/tri-FLAG tags of pSANG10-3F) scFv: QMQLVQSGAEVKKPGAPVKVSCKVSGYTFTDYYMHWVQQAPGKGLEWMGLVDPEDGETIYAEKFQGRVTITADTSTDTAYMELSSLRSEDTAVYYCATDATTPYWGMQLWGQGTLVTVSSLEGGGGSGGGGSGGGASDIQMTQSPSSLSASVGDRVTITCQASQDISNYLNWYQQKPGRAPKVLIYDASNLETGVPSRFSGSGSGTEFTLTISNLRPDDFATYYCQQGDSFPLTFGGGTKVEIK	0.00417
107_A07 scFv (6xHis/tri-Flag tags) (scFv, 7A2 derivative, only VH CDR3 changed; not shown: 6xHis/tri-FLAG tags of pSANG10-3F) scFv: QMQLVQSGAEVKKPGAPVKVSCKVSGYTFTDYYMHWVQQAPGKGLEWMGLVDPEDGETIYAEKFQGRVTITADTSTDTAYMELSSLRSEDTAVYYCATDATTPYWGMMWWGQGTLVTVSSLEGGGGSGGGGSGGGASDIQMTQSPSSLSASVGDRVTITCQASQDISNYLNWYQQKPGRAPKVLIYDASNLETGVPSRFSGSGSGTEFTLTISNLRPDDFATYYCQQGDSFPLTFGGGTKVEIK	0.00115
110_A10 scFv (6xHis/tri-Flag tags) (scFv, 7A2 derivative, only VH CDR3 changed; not shown: 6xHis/tri-FLAG tags of pSANG10-3F) scFv: QMQLVQSGAEVKKPGAPVKVSCKVSGYTFTDYYMHWVQQAPGKGLEWMGLVDPEDGETIYAEKFQGRVTITADTSTDTAYMELSSLRSEDTAVYYCATDATTPYWGMQTWGQGTLVTVSSLEGGGGSGGGGSGGGASDIQMTQSPSSLSASVGDRVTITCQASQDISNYLNWYQQKPGRAPKVLIYDASNLETGVPSRFSGSGSGTEFTLTISNLRPDDFATYYCQQGDSFPLTFGGGTKVEIK	0.00273
112_G01 scFv (6xHis/tri-Flag tags) (scFv, not shown: 6xHis/tri-FLAG tags) scFv: QMQLVQSGAEVKKPGAPVKVSCKVSGYTFTDYYMHWVQQAPGKGLEWMGLVDPEDGETIYAEKFQGRVTITADTSTDTAYMELSSLRSEDTAVYYCATDATTPYWGMWHWGQGTLVTVSSLEGGGGSGGGGSGGGASDIQMTQSPSSLSASVGDRVTITCQASQDISNYLNWYQQKPGRAPKVLIYDASNLETGVPSRFSGSGSGTEFTLTISNLRPDDFATYYCQQGDSFPLTFGGGTKVEIK	0.00238
